Test system: OVCAR-3 ovarian
experiment.notes: NCI-60 one-dose screen, 48 h
test.context: 10 µM unless noted
The panel holds about 83,000 compounds, 20% with a hit somewhere; the sample as a whole holds those more often. Activity calls are given as the source filed them. The calls were made as follows: active = growth percent below 10; inactive = the rest.
Permitted responses: active, inactive

Could you kindly confirm the outcome this assay logged for "C[C@H](NC(=O)c1ccc2c(-c3ccc(C(F)(F)F)cc3)cccc2c1)c1ccccn1" ?
inactive

Please state the recorded outcome for this compound: "COc1ccc(Nc2nnc(-c3c[nH]c4ccccc34)o2)cc1"
inactive

Write down the call the test reported for this compound. Item: N#CC1=C(c2cccs2)Nc2c(c(-c3ccccc3)nn2-c2ccccc2)C12C(=O)Nc1ccccc12 (stereo not drawn)
inactive

Would you mind telling me which call this test gave "FC(F)(F)c1cc2c(Cl)ncnc2n1CCC1CCOCC1" ?
active

Can you look up the reported call for "CC[C@@]12CC(C(=O)OC)=C3Nc4cc5c(cc4[C@@]34CCN(C[C@H]3O[C@H]31)[C@@H]24)[C@@H]1[C@H](O5)[C@@H](O)[C@@]2(CC)CC(C(=O)OC)=C3Nc4cc(O)ccc4[C@@]34CCN1[C@@H]24" for me?
active

Call for entry "CCCCNc1ccc2c3c(cccc13)C(=O)N(c1cccc(-c3nn(-c4ccccc4)cc3-c3nc4ccccc4s3)c1)C2=O" :
inactive

What outcome does the record of this test show for "COc1ccc(N=Nc2c(N)nn3c(-c4ccc5c(c4)C=S=C5)ccnc23)cc1" ?
inactive

Recorded test outcome, item "COc1ccc(-c2cc(C(=O)Oc3ccc(C=O)cc3OC)nn2-c2ccc(S(C)(=O)=O)cc2)cc1"
inactive

###

Tested on: NCI-H460 lung
experiment.notes: NCI-60 one-dose screen, 48 h
test.context: 10 µM unless noted
About 83,000 compounds went through this panel and 20% of them were active in at least one assay; those are over-represented in the sample as a whole. Active and inactive are the calls of the source. How the source made its calls: active means growth percent below 10; inactive means the rest.
Can you answer with just one of these options? label 1 (active), label 0 (inactive)

What was the test verdict on "CC1=C(C)C(=O)C(NCCN2CCOCC2)=C(Br)C1=O" ?
label 0

// param item: COc1cc(C2CC(c3ccc(C(F)(F)F)cc3)=Nc3c(N)nc(N)nc3N2)ccc1Oc1nc(Nc2ccc(F)cc2)nc(N(C)C)n1 (stereo not drawn) ; yields the recorded call
label 0

For "N#Cc1ccc(C(=O)CSc2nc3c(c(Nc4ccc(S(N)(=O)=O)cc4)n2)CCC3)cc1" , which call appears in the assay record?
label 0

// outcome(item) with item = "COc1ccc(C(=O)c2cc(C(C)=O)c3c(C)cc(C)cn23)cc1"
label 0

Write down the call the test reported for this compound. Item: "CS(=O)(=O)Nc1cncc(-c2ccc3ncnc(NCc4ccccc4)c3c2)c1"
label 0

Dear all, I need the recorded test outcome for "CN(C)c1nc(NCCNS(=O)(=O)c2ccc(C(=O)/C=C/c3ccc(C(F)(F)F)cc3)cc2)nc(N2CCOCC2)n1" , thank you.
label 0

For this compound, state the assay outcome: "COc1ccc(-c2cc(C)nc3[nH]c(=O)sc23)cc1"
label 0

Would you mind telling me which call this test gave "COc1ccc(N=Nc2c(N)nn3c(N)c(C#N)c(-c4ccc(F)cc4)nc23)cc1" ?
label 0

What did the test return for "COc1ccc2c(c1)N=c1c-2cc2c(O)[nH]c(=S)n2c1=O" ?
label 0

# lookup: test call for "CCOc1ccc(-c2cc(-c3cc(C(C)C)c(O)cc3C)nn2-c2ccc(S(N)(=O)=O)cc2)cc1"
label 0

Returns: the outcome recorded for "Cn1cc(Nc2ncnc(-c3ccc(N4CCCC4)c(C#N)c3)n2)cn1" in this assay.
label 0

Hi, do you know how "O=C(N=Nc1c(O)[nH]c2ccc(Cl)cc12)c1ccc2nc(-c3ccc(Cl)cc3)[nH]c2c1" came out in this test?
label 0

# lookup: test call for "O=c1c(-c2nc(-c3ccccc3)c(-c3ccccc3)[nH]2)coc2ccc(F)cc12"
label 0

Query: recorded result category for "O=C1Nc2cc(-c3ccc(NS(=O)(=O)c4ccc([N+](=O)[O-])cc4)cc3)ccc2/C1=C/c1ccc[nH]1" in this test
label 1

Write down the call the test reported for this compound. Item: COc1cc(C2CC(c3cc(OC)c(OC)c(OC)c3)=Nc3c(N)nc(N)nc3N2)ccc1Oc1nc(Nc2ccc(F)cc2)nc(N(C)C)n1 (stereo not drawn)
label 0

Outcome? "O=C(Nc1nc2ccccc2s1)Nc1ccccc1Cl"
label 0

Which result was noted for this compound in the test: "COc1ccc(NC(=O)Cn2c(/C=C/c3cccc(OC)c3)nc3ccccc3c2=O)cc1"
label 0

Outcome logged for "COc1cccc(NC(=O)c2ccc(NC(=O)CCl)s2)c1" in this assay:
label 0

What did the test return for "O=C(NN1C(=O)/C(=C/C=C/c2ccc([N+](=O)[O-])o2)SC1=S)c1ccc([N+](=O)[O-])cc1" ?
label 1

What classification did "Nc1nn2c(-c3cc4cc(Br)ccc4oc3=O)ccnc2c1N=Nc1ccccc1" end up with in this test?
label 1

What was the test verdict on CCN1C(=O)N(CC)C2NNC(Sc3c(C(=O)O)c4ccccc4n(CCC(C)C)c3=O)=NC21 (stereo not drawn) ?
label 1

Tell me the recorded outcome of this test for "O=C(CSc1nnc(-c2ccc(-c3nc4ccc(Cl)cc4[nH]3)cc2)o1)Nc1ccc(Cl)cc1" .
label 1

Recorded test outcome, item "CCOc1ccccc1NC(=O)N/C(N)=N/c1nc2ccccc2s1"
label 1

State the result this test recorded for "COc1c(B(O)O)cc(F)cc1-c1nc2ccc3[nH]ncc3c2c2c1COCC2" .
label 0

What classification did "CCCCCCCCc1ccc(C(=O)Nc2ccc(C)cc2C(=O)O)cc1" end up with in this test?
label 0

For "COc1cc(CNC(=O)C[C@H](C)CCC=C(C)C)ccc1OCc1cn(-c2ccccc2Cl)nn1" , what call appears in the results of this test?
label 0

Please indicate how the test categorized "COc1ccc(Nc2nnc(-c3c[nH]c4ccccc34)o2)cc1" .
label 0

Query: recorded result category for "FC(F)(F)c1cc2c(Cl)ncnc2n1CCN1CCOCC1" in this test
label 0

Record request — test call for "Nc1cc(-c2c[nH]c3ccc(Cl)cc23)nc2cc(-c3c[nH]c4ccccc34)nn12"
label 1

Status in this test for "N#Cc1c(NC(=O)N2CCOCC2)n(-c2ccc(OC(F)(F)F)cc2)c2cc(F)ccc12" ?
label 0

Recorded test call requested for "CCOC(=O)c1ccc(NC(=S)NC(=O)c2cccc(NC(=O)c3ccc(C)cc3)c2)cc1"
label 0

Can you look up the reported call for "CCCCCCCCc1ccc(C(=O)Nc2ccc(C)c(OP(=O)(O)O)c2)cc1" for me?
label 0

Any idea what this test logged for "Nc1cc(-c2c[nH]c3ccc(F)cc23)nc2cc(-c3c[nH]c4ccccc34)nn12" ?
label 1

For "N#C/C(=C1/C(=O)Nc2ccccc21)c1nnc(NC(=O)c2ccc(-n3c(=O)[nH]c4ccccc4c3=O)cc2)s1" , which call appears in the assay record?
label 1

Please indicate how the test categorized "Cn1cc(-c2cc(N)n3nc(-c4c[nH]c5ccccc45)cc3n2)c2cc(Br)ccc21" .
label 1

What outcome does the record of this test show for "COc1ccc(-c2nc3ccccc3n2CC(=O)N=Nc2c(O)[nH]c3ccc(Br)cc23)cc1" ?
label 0

I would be grateful if you could indicate the recorded call for "O=C(Nc1ccc(-c2ccc3c(c2)NC(=O)/C3=C\c2ccc[nH]2)cc1)Nc1ccc(Cl)c(C(F)(F)F)c1" .
label 1

Tell me the recorded outcome of this test for "O=C1NC(=NC23CC4CC(CC(C4)C2)C3)N/C1=C\c1ccc2ncccc2c1" .
label 1

###

System: TK-10 renal
experiment.notes: NCI-60 one-dose screen, 48 h
test.context: 10 µM unless noted
Protocol: Growth inhibition of the TK-10 human tumor cell line is measured as a screen for anti-cancer activity. Cells are grown in 96 well plates and exposed to the test compound for 48 hours. Compounds are tested at a single concentration, which is 10^-5 M for most compounds. The reported endpoint is percent growth (GI% or GIPRCNT), where numbers from 0 - 100% represent growth inhibition, and numbers from -100% - 0 represent cell death. For example, a value of 40 represents 60% growth inhibition. […]
This is part of a sample that, as a whole, favours compounds with a hit. Of some 83,000 tested, about 20% had one in any assay. Active and inactive are the calls of the source. Rule for the calls: active = growth percent below 10; inactive = the rest.
The reply should name one outcome from active, inactive

Dear all, I need the recorded test outcome for "C[C@H](NC(=O)c1ccc2c(-c3ccc(C(F)(F)F)cc3)cccc2c1)c1ccccn1" , thank you.
inactive

Can you look up the reported call for "CCOc1ccc(-c2cc(-c3cc(C(C)C)c(O)cc3C)nn2-c2ccc(S(N)(=O)=O)cc2)cc1" for me?
inactive

What did the test return for "Nc1nc(-c2ccccc2)c(N=Nc2ccc(Cl)cc2Cl)s1" ?
active

What did the test return for "O=C1N/C(=N\c2nccs2)S/C1=C\c1ccc([N+](=O)[O-])cc1" ?
inactive

Record request — test call for "COC(=O)c1cccc(Oc2ccc(NC(=O)Nc3cc(C(F)(F)F)ccc3F)cc2)c1"
inactive

For this compound, state the assay outcome: "COc1cc(CNC(=O)C[C@H](C)CCC=C(C)C)ccc1OCc1cn(-c2ccc(Cl)c(Cl)c2)nn1"
inactive

Recorded test outcome, item "NNc1ncnc2sc3c(c12)CCN(Cc1ccccc1)C3"
inactive

# outcome recorded in this test, key = "COc1ccc(C(=O)C[n+]2cccc3c4ccccc4ccc32)cc1"
inactive

Would you mind telling me which call this test gave O=C1CCC(N2C(=O)c3cccc(NCCOCCOCCOCCC(=O)NCCCC(=O)NC(c4ccc5c(c4)OCO5)c4cc(Cl)c5cccnc5c4O)c3C2=O)C(=O)C1 (stereo not given) ?
inactive

# fetch the recorded call for "C=CCSc1nnc(-c2c(C)nc3sccn23)o1" here
inactive
